Hey, just so you know, these numbers are from PubChem BioAssay (NCI).

- Tested on: HT29 colon
- protocol-description: NCI-60 one-dose screen, 48 h (100 = growth as untreated, 0 = no growth, -100 = all killed)
- assay-setup: 10 µM unless noted
The panel holds about 83,000 compounds, 20% with a hit somewhere; the sample as a whole holds those more often.
metric-name: growth (%)
Return type: number; implicit unit %.

Bench note: what growth did Fc1ccc(CNc2c3ccccc3nc3ccccc23)c(F)c1 show? 21.8

Bench note: what growth did CC(=O)c1c(C)nc2ccccc2c1/C=C/c1ccc(F)cc1 show? 90.7

Bench note: what growth did Cn1ccnc1C(=O)/C=C/c1ccc(C(=O)Nc2ccc(Cl)cc2)cc1 show? 2.78

Bench note: what growth did Cc1ccc(Nn2c(SCC(=O)Nc3nc(-c4ccccc4)cs3)nc(C)c2C)cc1 show? 56.1

Bench note: what growth did N#Cc1nc(-c2ccc(F)cc2)oc1S(=O)(=O)N1CCOCC1 show? 36.5

Bench note: what growth did CCOC(=O)C1=C(c2ccccc2)N=C2SC=C(c3ccc(Cl)cc3)N2C1c1ccc(Br)cc1 (centres undefined) show? 82.2

Bench note: what growth did O=c1[nH]c(-c2ccccc2)nc2sc3cc(O)ccc3c12 show? 106

Bench note: what growth did C=C1C(=O)O[C@H]2[C@H]1CC/C(Cn1cc(-c3ccccc3)nn1)=C\CC[C@@]1(C)O[C@@H]21 show? -58.3

Bench note: what growth did COc1ccc(/C=C(\C#N)n2nnc3cc(Cl)ccc32)cc1 show? 2.07
